# measured on: Botulinum neurotoxin type A (Clostridium botulinum)
# test name: Inhibition of Clostridium botulinum BoNT/A holotoxin-mediated SNAP-25 cleavage in mouse HBG3 cell-derived motor neurons preincubated for 30 mins followed by intoxication measured after 4 hrs by Western blot method
Could you please report measured IC50 for the items listed next?

The following compounds each have a reported value; give each one's IC50.
1. CC(CCCNc1ccnc2ccccc12)NCc1ccc(-c2csc3ccc(F)cc23)cc1 (stereo not drawn)
2. CC(CCCN(C)Cc1ccc(-c2csc3ccc(C#N)cc23)cc1)Nc1ccnc2ccccc12 (stereo not drawn)

10 to 20 µM
10 to 20 µM

###

Could you please report measured Activity for the items listed next?
# measured on: Botulinum neurotoxin type A (Clostridium botulinum) (UniProt P0DPI0)
# test name: Inhibition of Clostridium botulinum BoNT/A holotoxin-mediated SNAP-25 cleavage in mouse HBG3 cell-derived motor neurons assessed as full length of SNAP-25 at 20 uM preincubated for 30 mins followed by intoxication measured after 4 hrs by Western blot method relative to control
# Design: scale not given: the % may be the effect or the level left
Answers are plain numbers, in %.

Here's what some known entries look like.
molecule: CC(=O)O[C@H]1C[C@H]2[C@@H]([C@H](OC(C)=O)C[C@@H]3C[C@H](N)CC[C@@]32C)[C@@H]2CC[C@H]([C@H](C)CCCN(C)CCCCNc3ccnc4ccccc34)[C@@]12C
units text: %
reported result: 69

molecule: CC(=O)O[C@H]1C[C@H]2[C@@H]([C@H](OC(C)=O)C[C@@H]3C[C@H](N)CC[C@@]32C)[C@@H]2CC[C@H]([C@H](C)CCCNCCCCNc3ccnc4cc(Cl)ccc34)[C@@]12C
units text: %
reported result: 88

The following molecules each have a reported value; give each one's Activity.
1. CC(CCNCCC12CC3CC(CC(C3)C1)C2)Nc1c(F)cnc2ccccc12 (stereo not drawn)
2. N#Cc1ccc2scc(-c3ccc(CNCCCCCCNc4ccnc5ccccc45)cc3)c2c1
3. CC(CCCNCc1ccc(-c2csc3ccc(C#N)cc23)cc1)Nc1ccnc2ccccc12 (stereo not drawn)
4. CC(CCNCC12CC3CC(CC(C3)C1)C2)Nc1c(F)cnc2ccccc12 (stereo not drawn)
5. N#Cc1ccc(-c2ccc(-c3ccc(CNCCCCCCNc4ccnc5ccccc45)cc3)s2)cc1

32
43
53
23
48

Looking up CN(CCCNc1ccnc2ccccc12)CC12CC3CC(CC(C3)C1)C2 , I found its Activity recorded as 31

###

# test name: Distribution co-efficient, log D of the compound at pH 1 by reversed-phase thin-layer chromatographic method
# Type: physicochemical
# condition set: buffer
Could you please report measured chromatographic logD for the items listed next?
Give bare numbers.

Here's what some known entries look like.
compound: C[C@H](CCCNCCCCNc1ccnc2cc(Cl)ccc12)[C@H]1CC[C@H]2[C@@H]3[C@H](O)C[C@@H]4C[C@H](N)CC[C@]4(C)[C@H]3C[C@H](O)[C@]12C
chromatographic logD: 2.97
--
compound: N#Cc1ccc(-c2ccc(-c3cccc(CNCCCCCCNc4ccnc5ccccc45)c3)s2)cc1
chromatographic logD: 3.08

Field: next compound
Looking up CC(=O)O[C@H]1C[C@H]2[C@@H]([C@H](OC(C)=O)C[C@@H]3C[C@H](N)CC[C@@]32C)[C@@H]2CC[C@H]([C@H](C)CCCN(C)CCCC(C)Nc3ccnc4ccccc34)[C@@]12C (mixture of isomers) , I found its chromatographic logD recorded as 2.38

###

Could you please report measured Activity for the items listed next?
# measured on: Botulinum neurotoxin type A (Clostridium botulinum) (UniProt P0DPI0)
# test name: Inhibition of Clostridium botulinum BoNT/A holotoxin-mediated SNAP-25 cleavage in mouse HBG3 cell-derived motor neurons assessed as full length of SNAP-25 at 10 uM preincubated for 30 mins followed by intoxication measured after 4 hrs by Western blot method relative to control
# Design: scale not given: the % may be the effect or the level left
Give bare numbers, in %.

compound: CC(CCCNCc1ccc(-c2csc3ccc(F)cc23)cc1)Nc1ccnc2ccccc12 (stereo unspecified)
Activity, %: 62
--
compound: CN(CCCNc1ccnc2cc(Cl)ccc12)CC12CC3CC(CC(C3)C1)C2
Activity, %: 51
--
compound: CC(CCCNc1ccnc2ccccc12)NCc1ccc(-c2csc3ccc(F)cc23)cc1 (stereo unspecified)
Activity, %: 58
--
compound: CC(CCNCC12CC3CC(CC(C3)C1)C2)Nc1c(F)cnc2ccccc12 (stereo unspecified)
Activity, %: 24
--
compound: N#Cc1ccc(-c2ccc(-c3ccc(CNCCCCNc4ccnc5ccccc45)cc3)s2)cc1
Activity, %: 18

The following compounds each have a reported value; give each one's Activity.
1. CC(CCNc1ccnc2cc(Cl)ccc12)NCC12CC3CC(CC(C3)C1)C2 (stereo unspecified)
2. N#Cc1ccc2scc(-c3ccc(CNCCCCCCNc4ccnc5ccccc45)cc3)c2c1
3. CC(=O)O[C@H]1C[C@H]2[C@@H]([C@H](OC(C)=O)C[C@@H]3C[C@H](N)CC[C@@]32C)[C@@H]2CC[C@H]([C@H](C)CCCNC(C)CCCNc3ccnc4ccccc34)[C@@]12C (mixture of isomers)
4. N#Cc1ccc(-c2ccc(-c3ccc(CNCCCCCCCCNc4ccnc5ccccc45)cc3)s2)cc1
5. CC(CCN(C)CC12CC3CC(CC(C3)C1)C2)Nc1ccnc2ccccc12 (stereo unspecified)
6. CC(CCCN(C)Cc1ccc(-c2csc3ccc(C#N)cc23)cc1)Nc1ccnc2ccccc12 (stereo unspecified)

1. 29
2. 36
3. 86
4. 31
5. 47
6. 59

The following compounds each have a reported value; give each one's Activity.
1. CC(=O)O[C@H]1C[C@H]2[C@@H]([C@H](OC(C)=O)C[C@@H]3C[C@H](N)CC[C@@]32C)[C@@H]2CC[C@H]([C@H](C)CCCNCCCC(C)Nc3ccnc4ccccc34)[C@@]12C (mixture of isomers)
2. CN(CCCCNc1ccnc2ccccc12)Cc1ccc(-c2csc3ccc(F)cc23)cc1

[67, 44]

The following compounds each have a reported value; give each one's Activity.
1. CC(CCNc1ccnc2ccccc12)NCCC12CC3CC(CC(C3)C1)C2 (stereo unspecified)
2. N#Cc1ccc(-c2ccc(-c3cccc(CNCCCCCCNc4ccnc5ccccc45)c3)s2)cc1
3. CC(=O)O[C@H]1C[C@H]2[C@@H]([C@H](OC(C)=O)C[C@@H]3C[C@H](N)CC[C@@]32C)[C@@H]2CC[C@H]([C@H](C)CCCN(C)CCCCNc3ccnc4ccccc34)[C@@]12C

1. 23
2. 46
3. 70

###

# Test system: Mus musculus
# test name: Toxicity in mouse assessed as effect on survival at 160 mg/kg, po administered for 3 days measured after 30 days
# Assay type: organism-based
# condition set: in vivo, 720 h

compound: CC(CCCNc1ccnc2ccccc12)NCc1ccc(-c2csc3ccc(F)cc23)cc1 (centres undefined)
Activity: Non-Toxic
//
compound: N#Cc1ccc(-c2ccc(-c3ccc(CNCCCCCCCCNc4ccnc5ccccc45)cc3)s2)cc1
Activity: Non-Toxic
//
compound: CN(CCCCCCCCNc1ccnc2ccccc12)Cc1ccc(-c2ccc(-c3ccc(C#N)cc3)s2)cc1
Activity: Non-Toxic
//
compound: CC(=O)O[C@H]1C[C@H]2[C@@H]([C@H](OC(C)=O)C[C@@H]3C[C@H](N)CC[C@@]32C)[C@@H]2CC[C@H]([C@H](C)CCCNCCCCNc3ccnc4cc(Cl)ccc34)[C@@]12C
Activity: Non-Toxic

###

# measured on: Botulinum neurotoxin type A (Clostridium botulinum) (UniProt P0DPI0)
# test name: Inhibition of Clostridium botulinum BoNT/A holotoxin-mediated SNAP-25 cleavage in mouse HBG3 cell-derived motor neurons assessed as full length of SNAP-25 at 20 uM preincubated for 30 mins followed by intoxication measured after 4 hrs by Western blot method relative to control
# Set-up: scale not given: the % may be the effect or the level left
Activity of 60% or higher: Condition met. Under 60%: Condition not met.

compound: CC(CCNc1ccnc2ccccc12)NCCC12CC3CC(CC(C3)C1)C2 (configuration not stated)
qualitative label: Condition not met
//
compound: CC(CCCN(C)Cc1ccc(-c2csc3ccc(C#N)cc23)cc1)Nc1ccnc2ccccc12 (configuration not stated)
qualitative label: Condition met
//
compound: N#Cc1ccc(-c2ccc(-c3ccc(CNCCCCNc4ccnc5ccccc45)cc3)s2)cc1
qualitative label: Condition not met
//
compound: CN(CCCCNc1ccnc2ccccc12)Cc1ccc(-c2csc3ccc(F)cc23)cc1
qualitative label: Condition not met

Can CC(=O)O[C@H]1C[C@H]2[C@@H]([C@H](OC(C)=O)C[C@@H]3C[C@H](N)CC[C@@]32C)[C@@H]2CC[C@H]([C@H](C)CCCNCCCCNc3ccnc4ccccc34)[C@@]12C be said to have Activity at or above 60%?
Condition met

Can CC(=O)O[C@H]1C[C@H]2[C@@H]([C@H](OC(C)=O)C[C@@H]3C[C@H](N)CC[C@@]32C)[C@@H]2CC[C@H]([C@H](C)CCCN(C)CCCC(C)Nc3ccnc4ccccc34)[C@@]12C (mixture of isomers) be said to have Activity at or above 60%?
Condition not met

Cited source: ChEMBL document CHEMBL4024803
